Entry source: patent US9714231B2

A collection of compounds and their measured pEC50
- MEASURED_TARGET: human GPR40 (Homo sapiens, UniProt O14842)
- Sequence (O14842 whole entry): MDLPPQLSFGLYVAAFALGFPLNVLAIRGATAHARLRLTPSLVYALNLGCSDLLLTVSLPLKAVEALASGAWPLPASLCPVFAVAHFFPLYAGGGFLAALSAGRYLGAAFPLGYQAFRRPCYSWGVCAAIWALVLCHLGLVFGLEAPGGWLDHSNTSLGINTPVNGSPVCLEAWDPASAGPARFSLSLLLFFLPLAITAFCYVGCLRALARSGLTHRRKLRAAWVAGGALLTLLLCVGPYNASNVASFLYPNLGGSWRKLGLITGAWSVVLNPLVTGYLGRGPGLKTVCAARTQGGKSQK
- PROTOCOL_SUMMARY: FDSS-based intracellular calcium assay (Human GRP40 in vitro assay)
- Format: cell-based
- Parameters: 3xFLAG; expressed in transfected cells
- EXPERIMENTAL_PARAMETERS: cells expressing GPR40, intracellular Ca2+ response, FDSS reader; read-out: hGPR40 EC50
Where a name gives a salt, the structure may show the parent alone.
Kindly note that pEC50 refers to -log10 of the concentration in mol/L and answer with the value alone.

Known results for compounds:
[
  {
    "COMPOUND": "CCOc1ccc(F)c(N2CCC(Oc3ccc(N4C[C@H](c5ccccc5)C[C@@H]4CC(=O)O)cc3)C(C)C2)c1 (stereo partly drawn) [Example 41, HCl]",
    "METRIC_NAME": "pEC50",
    "REPORTED": 6.64
  },
  {
    "COMPOUND": "COc1cc(N2CCC(Oc3ccc(N4C[C@H](OC)CC4CC(=O)O)c(F)c3F)C(C)C2)c(Cl)cn1 (single isomer, unassigned) [Example 141, Isomer 3]",
    "METRIC_NAME": "pEC50",
    "REPORTED": 5.33
  },
  {
    "COMPOUND": "COc1cc(N2CCC(Oc3ccc(N4C[C@H](OC)[C@@H](C)[C@@H]4CC(=O)O)cc3)C(C)C2)c(Cl)cn1 (stereo partly drawn) [Example 119, HCl]",
    "METRIC_NAME": "pEC50",
    "REPORTED": 7.12
  }
]

INPUT: Bench note: what pEC50 did COc1cc(N2CCC(Oc3ccc(N4CC(C)(C)C[C@@H]4CC(=O)O)cn3)C(C)C2)c(Cl)cn1 (stereo partly drawn) [Example 109, TFA] show?
OUTPUT: 6.64

INPUT: Quick check: pEC50 of COc1ccc(F)c(N2CCC(Oc3ccc(N4C[C@H](OC)C[C@@H]4CC(=O)O)cc3)CC2C)c1 (single isomer, unassigned) [Example 13, Isomer 1, HCl] ?
OUTPUT: 6.15

INPUT: Name the recorded pEC50 for CCOc1ccc(F)c(N2CCC(Oc3ccc(N4C[C@H](c5cnn(C)c5)C[C@@H]4CC(=O)O)cc3)CC2)c1 [Example 126, TFA] .
OUTPUT: 6.09

INPUT: Fill in the blank: the reported pEC50 of O=C(O)C[C@H]1C[C@@H](C(F)(F)F)CN1c1ccc(OC2CCN(c3ccccc3)CC2)cc1 [Example 22, HCl] is ____.
OUTPUT: 5.74

INPUT: Request the reported pEC50 associated with CCOc1ccc(F)c(N2CCC(Oc3ccc(N4C[C@H](N(C)S(=O)(=O)c5ccccc5)C[C@@H]4CC(=O)O)cc3)CC2)c1 [Example 80, TFA]
OUTPUT: 5.34

INPUT: Quick one: pEC50 for CCOc1ccc(F)c(N2CCC(Oc3ccc(N4C[C@H](C(F)(F)F)C[C@@H]4CC(=O)O)cc3)C(Cc3ccccc3)C2)c1 (single isomer, unassigned) [Example 36, Isomer 2, HCl] ?
OUTPUT: 6.13
